Target: human PAC1 receptor (Homo sapiens, UniProt P41586)
Construct: SHSY-5Y (human neuroblastoma cell line) and RG-2 (rat glioma cell line) cells endogenously express human and rat PAC1 receptors, respectively; endogenous in cells; host or cells: SHSY-5Y human neuroblastoma cells
Sequence (P41586 21-468): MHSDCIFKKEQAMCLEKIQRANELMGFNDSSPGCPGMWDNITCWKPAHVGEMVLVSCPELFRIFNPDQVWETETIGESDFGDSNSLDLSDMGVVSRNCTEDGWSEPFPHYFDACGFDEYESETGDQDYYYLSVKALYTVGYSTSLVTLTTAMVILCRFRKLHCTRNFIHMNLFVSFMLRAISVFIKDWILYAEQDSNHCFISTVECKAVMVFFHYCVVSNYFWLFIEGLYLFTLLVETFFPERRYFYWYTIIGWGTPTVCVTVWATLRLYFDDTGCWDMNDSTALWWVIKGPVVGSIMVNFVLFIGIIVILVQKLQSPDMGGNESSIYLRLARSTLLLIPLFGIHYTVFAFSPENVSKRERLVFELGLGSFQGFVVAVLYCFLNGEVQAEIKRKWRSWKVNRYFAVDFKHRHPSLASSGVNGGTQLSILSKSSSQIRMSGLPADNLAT
Test: LANCE Ultra cAMP accumulation antagonist assay in SHSY-5Y cells
Format: cell-based
pIC50: −log10 of the molar value. Bridges are numbered along the chain shown (N, C = ends). Where no end group is shown, it is not given here.
Reported pIC50 by item:

Sample records with pIC50:
substance | target under test | pIC50
CDATCQFRKAIDDCQKQAHHSNVPGSVFKACMKFRRTLWKAG-NH2 (disulfide 1-5, 14-31) [compound 89] | human PAC1 receptor (Homo sapiens, UniProt P41586) | 7.00 to 9.00
CDATCQFRKAIDDCVRQAHHSNVPGSVFKACMKQKKKEWKAG-NH2 (disulfide 1-5, 14-31) [compound 79] | human PAC1 receptor (Homo sapiens, UniProt P41586) | 9.00 to 11.00
CDATCQFRKAIDDCYYRSWHANVPGSVFKACMKQKKKEWKAG-NH2 (disulfide 1-5, 14-31) [compound 60] | human PAC1 receptor (Homo sapiens, UniProt P41586) | 9.00 to 11.00
CDATCQFRKAIDDCKQQAHHSNVPGNSVFEKCMKQKKKEFKAGK (disulfide 1-5, 14-32) [compound 346] | human PAC1 receptor (Homo sapiens, UniProt P41586) | < 7.00
SCDATCQFRKAIDDCQKQAHHSNVPGSVFKACMKQKKKEFKAG-NH2 (disulfide 2-6, 15-32) [SEQ ID NO 183] | human PAC1 receptor (Homo sapiens, UniProt P41586) | 7.00 to 9.00

### Prompt Given the substance CDATCQFRKAIDDCAHRAWHSNVPGSVFKLCMKQKKKEWKAGH-NH2 (disulfide 1-5, 14-31) [compound 424] , what is its reported pIC50?
### Response 9.00 to 11.00

### Prompt Given the substance CDATCQFRKAIDDCAKQAHHSNVPGSVFKACMKQKKKEFKAGH (disulfide 1-5, 14-31) [compound 57] , what is its reported pIC50?
### Response 9.00 to 11.00

====

Biological target: human PAC1 receptor (Homo sapiens, UniProt P41586)
Construct: SHSY-5Y (human neuroblastoma cell line) and RG-2 (rat glioma cell line) cells endogenously express human and rat PAC1 receptors, respectively; endogenous in cells; host or cells: SHSY-5Y human neuroblastoma cells
Sequence (P41586 21-468): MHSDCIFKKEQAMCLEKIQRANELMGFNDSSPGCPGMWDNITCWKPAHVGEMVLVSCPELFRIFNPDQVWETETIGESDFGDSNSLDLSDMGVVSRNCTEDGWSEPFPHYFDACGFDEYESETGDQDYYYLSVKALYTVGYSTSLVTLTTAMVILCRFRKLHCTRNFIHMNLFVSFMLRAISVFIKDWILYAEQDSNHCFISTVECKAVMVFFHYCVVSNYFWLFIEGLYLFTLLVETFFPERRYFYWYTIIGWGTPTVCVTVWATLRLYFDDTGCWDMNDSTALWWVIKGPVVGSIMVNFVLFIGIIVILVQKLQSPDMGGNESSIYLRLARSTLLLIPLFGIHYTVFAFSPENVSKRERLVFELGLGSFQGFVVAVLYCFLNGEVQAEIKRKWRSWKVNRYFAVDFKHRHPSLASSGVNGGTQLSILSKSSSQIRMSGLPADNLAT
Assay: LANCE Ultra cAMP accumulation antagonist assay in SHSY-5Y cells;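 also: inhibition of cAMP accumulation evoked by PAC1 agonist at its EC80 in SHSY-5Y cells endogenously expressing receptor, 30 min preincubation then 15 min agonist, TR-FRET readout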
Assay type: cell-based
Bridges are numbered along the chain shown (N, C = ends). Where no end group is shown, it is not given here.
Reported IC50 by item:

Sample records with IC50:
substance | IC50
CDATCQFRKAIDDCWMLSWHANVPGSVFKACMKQKKKEFKAGH (disulfide 1-5, 14-31) [compound 111] | 0.01 to 1 nM
CDATCQFRKAIDDCMLLSWHSNVPGSVFKACMKQKKKEFKAG-NH2 (disulfide 1-5, 14-31) [compound 132] | 0.01 to 1 nM
CDATCQFRKAIDDCAKQAHHANVPGSVFKACMKQKKKEFKAG-NH2 (disulfide 1-5, 14-31) [compound 13] | 0.01 to 1 nM

### Prompt Given the substance CDATCQFRKAIDDCVRQAHHSNVPGSVFKACMKQKKKEWKAH (disulfide 1-5, 14-31) [compound 99] , what is its reported IC50?
### Response 0.01 to 1 nM

### Prompt Given the substance CDATCQFRKAIDDCYYYAMHSNVPGSVWKACLKQKKKEFKAG-NH2 (disulfide 1-5, 14-31) [compound 78] , what is its reported IC50?
### Response 0.01 to 1 nM

### Prompt Given the substance CDATCQFRKAIDDCWIVAWHSNVPGSVFKACMKQKKKEFKAG-NH2 (disulfide 1-5, 14-31) [compound 73] , what is its reported IC50?
### Response 0.01 to 1 nM

### Prompt Given the substance CDATCQFRKAIDDCDRQAHHSNVPGSVFKACMKQKKKEWKAN (disulfide 1-5, 14-31) [compound 159] , what is its reported IC50?
### Response 1 to 100 nM

### Prompt Given the substance CDATCQFRKAIDDCQKQAHHSNVPGSVFKACMKQKKKEFKAQ (disulfide 1-5, 14-31) [compound 96] , what is its reported IC50?
### Response 1 to 100 nM

### Prompt Given the substance CDATCQFRKAIDDCQKQAHHSNVPGSVFKACMKQKKKEFKAGHHHHHH (disulfide 1-5, 14-31) [compound 160] , what is its reported IC50?
### Response 1 to 100 nM

### Prompt Given the substance CDATCFFRKVIDDCYYRSWHSNVPGSVFKACMKQLKKRWQAG-NH2 (disulfide 1-5, 14-31) [compound 70] , what is its reported IC50?
### Response 1 to 100 nM

### Prompt Given the substance CDATCQFRKAIDDCDRQAHHSNVPGSVFKACMKQKKKEWKAN-NH2 (disulfide 1-5, 14-31) [compound 158] , what is its reported IC50?
### Response 0.01 to 1 nM

### Prompt Given the substance CDATCQFRKAIDDCQKQAHHSNVPGSVFKACVLQKKKEFKAG-NH2 (disulfide 1-5, 14-31) [compound 93] , what is its reported IC50?
### Response 1 to 100 nM

### Prompt Given the substance CDATCQFRKAIDDCVWYSMHSNVPGSVFKACMKQKKKEFKAG-NH2 (disulfide 1-5, 14-31) [compound 133] , what is its reported IC50?
### Response 0.01 to 1 nM

### Prompt Given the substance CDATCQFRKAIDDCAKQAHHSNVPGSVFKLCMKQKKKEFKAG-NH2 (disulfide 1-5, 14-31) [compound 18] , what is its reported IC50?
### Response 0.01 to 1 nM

### Prompt Given the substance CDATCQFRKAIDDCQKQAHHSNVPGSVFKACMVQKKKEFKAG-NH2 (disulfide 1-5, 14-31) [compound 102] , what is its reported IC50?
### Response 1 to 100 nM

### Prompt Given the substance CDATCQFRKAIDDCVWKAFHANVPGSVFKACMKQKKKEFKAG-NH2 (disulfide 1-5, 14-31) [compound 118] , what is its reported IC50?
### Response 0.01 to 1 nM

### Prompt Given the substance CDATCQFRKAIDDCWVIAWHSNVPGSVFKACMKQKKKEFKAG-NH2 (disulfide 1-5, 14-31) [compound 130] , what is its reported IC50?
### Response 0.01 to 1 nM

### Prompt Given the substance CDATCQYRKGLVACLYKKVAMQKRYSVFKACMKQKKKEFKAG-NH2 (disulfide 1-5, 14-31) [compound 46] , what is its reported IC50?
### Response 1 to 100 nM

### Prompt Given the substance GCDATCQFRKAIDDCAKQAHHSNVPGSVFKACMKQKKKEFKAGH (disulfide 2-6, 15-32) [compound 59] , what is its reported IC50?
### Response 0.01 to 1 nM
